target: Cytochrome P450 2D6 (Homo sapiens) (UniProt P10635); test: Cytochrome panel assay with activity outcomes; details: recombinant CYP, pro-luciferin dealkylation, luminescence, p450-cyp2d6; series mostly up to 57.1 µM
Sequence (P10635 whole entry, looked up): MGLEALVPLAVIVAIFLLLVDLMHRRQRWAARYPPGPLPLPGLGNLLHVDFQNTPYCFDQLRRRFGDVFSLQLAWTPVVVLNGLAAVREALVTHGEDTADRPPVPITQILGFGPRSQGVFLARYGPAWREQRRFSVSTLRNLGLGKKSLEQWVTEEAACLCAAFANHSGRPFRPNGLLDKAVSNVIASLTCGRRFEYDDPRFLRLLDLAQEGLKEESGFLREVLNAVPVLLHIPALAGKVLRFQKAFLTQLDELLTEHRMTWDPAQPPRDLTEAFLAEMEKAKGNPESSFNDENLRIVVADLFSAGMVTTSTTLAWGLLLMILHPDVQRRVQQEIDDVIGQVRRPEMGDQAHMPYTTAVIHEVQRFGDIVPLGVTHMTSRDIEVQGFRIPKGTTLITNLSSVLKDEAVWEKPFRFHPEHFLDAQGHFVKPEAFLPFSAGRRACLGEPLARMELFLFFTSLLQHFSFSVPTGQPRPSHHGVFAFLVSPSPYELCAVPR
Among all 16,000 compounds or so, about 2,600 (16%) were called active. About 20% were inconclusive and are not listed. Only a sample is shown.
Measure: AC50

Observe how each entry below is paired with its result.
Compound	Assay Value
CC(=O)NC(NC(C)=O)c1ccc(Br)cc1	inactive
CCCCc1nc(SCC(=O)Nc2ncccn2)n[nH]1	inactive
CCOC(=O)C(C)Sc1nnc(CNC(=O)c2ccc(OC)cc2)n1C1CCCCC1 (stereo unspecified)	inactive
O=C(N/N=C/c1ccccn1)c1ccc(Br)o1	inactive
Cc1cccc(N2CCN(CC(=O)Nc3ccc(-n4cnnn4)cc3)CC2)c1C	inactive
CCn1c(CCNC(=O)c2ccc(Cl)cc2Cl)n[nH]c1=S	inactive
N[C@H](CCC(=O)N[C@H](CSN=O)C(=O)NCC(=O)O)C(=O)O	inactive
COc1cccc(N2CCN(C(=O)Nc3ccc4c(c3)NC(=O)CO4)CC2)c1	inactive
CCOc1ccc(-n2cc(C(=O)NCc3ccco3)c3cc(OC)c(OC)cc3c2=O)cc1	inactive
COc1ccc(CCn2c(=N)c(C(=O)NCc3ccco3)cc3c(=O)n4ccccc4nc32)cc1	1.12 µM (active)

Hey, can you go through the list below and give me AC50 for every item?
1. CSCC[C@H](NC(=O)CC(C)(C)C)c1nc2ccccc2[nH]1
2. CCCc1cc(=O)[nH]c(=S)[nH]1
3. CCCCC1(C)OC(=O)C(=Cc2ccc(N(C)C)cc2)C(=O)O1 (stereo unspecified)
4. CCC(C)n1nnc2c(=O)oc3ccccc3c21 (stereo unspecified)
5. COc1cc([C@H](O)CO)ccc1O

1: inactive; 2: inactive; 3: inactive; 4: inactive; 5: inactive

Field request: AC50 | item: COc1cc2c(cc1OC)C(C(=O)Nc1ccccn1)C(c1cccnc1)N(C)C2=O (stereo unspecified)
inactive

Reference for the values: PubChem BioAssay AID1851
